assay: Solubility in water
Assay type: physicochemical
experimental_context: 25° C.
quantity_name: solubility (mg/mL)
Please give a number only; it is taken to be in mg/mL.

Prompt line: Entry CC(CN1CC(=O)N(CN2CCOCC2)C(=O)C1)N1CC(=O)N(CN2CCOCC2)C(=O)C1 (racemic) has what solubility?
Response line: 20

* * *

assay: Animal test on acute toxicity
experimental_context: mouse, in vivo, ip; intraperitoneal, male ddY mice, observed 14 days, Litchfield-Wilcoxon method
As shown below, each of these molecules has a reported LD50 at 336 h value.

Solved cases (3 shown):
CC(CN1CC(=O)N(CN2CCN(c3ccccc3)CC2)C(=O)C1)N1CC(=O)NC(=O)C1 (racemic) | > 350 mg/kg
CC1CC(C)CN(CN2C(=O)CN(CCN3CC(=O)N(CN4CC(C)CC(C)C4)C(=O)C3)CC2=O)C1 (stereo not shown) | 400 to 500 mg/kg
O=C1CN(CCN2CC(=O)N(CN3CCN(c4ccccc4)CC3)C(=O)C2)CC(=O)N1CN1CCN(c2ccccc2)CC1 | 200 to 300 mg/kg

Kindly review the next molecule as well.
Prompt line: Give its LD50 at 336 h value. Item: CC(CN1CC(=O)N(CN2CCN(C)CC2)C(=O)C1)N1CC(=O)N(CN2CCN(C)CC2)C(=O)C1 (racemic)
Response line: 300 to 400 mg/kg
